FYI, the data here is from paper PMC5540273.

System: LZK;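 note: KINOMEscan kinase panel screen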
Construct: gene MAP3K13
conditions: concentration: 1 μM, replicates: in singlicate; n = 1
Param threshold (6%) applies to %Inh; output Condition met when value >= threshold, Condition not met when value < threshold.

Solved cases below.
Check the entry COC(=O)Nc1nc2ccc(Oc3ccc(NC(=O)Nc4cc(C(F)(F)F)ccc4F)cc3)cc2n1C.Cl [GW692089] : does %Inh equal or exceed 6%?
Condition met

Reported %Inh at or above 6%? "COc1ccc(-c2coc3ccc(-c4nnc(SCc5ccc(OC)c(C(F)(F)F)c5)o4)cc23)cc1"
Condition not met

Decide: %Inh of COc1cc(Nc2nccc(N3CCC(NC(=O)c4cc5ccccc5s4)C3)n2)cc(OC)c1OC (stereo not drawn) [GSK1379760] >= 6%?
Condition met

Say whether COc1cccc(-c2ccc3c(NC(=O)C4CC4)n[nH]c3n2)c1 [SB-710903] shows %Inh of 6% or more.
Condition met

Could you verify whether the entry CCn1c(-c2nonc2N)nc2c(C#CC(C)(C)O)ncc(OCCCCN)c21.O=C(O)C(F)(F)F.O=C(O)C(F)(F)F [GSK507274] shows %Inh of no less than 6%?
Condition not met

---
Does the reported %Inh for NCCCC(NC(=O)c1cc(Br)c(-c2ccnc3[nH]ccc23)s1)c1ccccc1.O=C(O)C(F)(F)F.O=C(O)C(F)(F)F (stereo not drawn) [GSK1287544] fall at or above the 6% mark?
Condition not met

hey, is %Inh for this one >= 6%? O=C(Nc1n[nH]c2nc(-c3ccc(O)cc3)ccc12)C1CC1 [SB-710363]
Condition not met

Reported %Inh reaches at least 6% for O=C(Nc1cccc(-c2nn3ccccc3c2-c2ccnc(Nc3cccc(C(F)(F)F)c3)n2)c1)c1c(F)cccc1F [GSK292658] ?
Condition not met

Reported %Inh at or above 6%? COc1cc(Nc2nccc(N3CCC(NC(=O)Nc4cccc(C(C)=O)c4)C3)n2)cc(OC)c1OC (stereo not drawn) [GSK1379753]
Condition not met

Can CN(c1ccc(NC(=O)Nc2cc(C(F)(F)F)ccc2F)cc1)c1ccnc(Nc2ccc(S(N)(=O)=O)cc2)n1 [GW809893] be said to have %Inh at or above 6%?
Condition not met

Could you tell me if the measured %Inh of Cl.c1ccc(-c2ccc3c(Nc4ccc5[nH]ncc5c4)ccnc3c2)nc1 [GW440137] reaches 6% or more?
Condition not met

Hi, just wondering whether COc1ccc(Nc2nccc(NCCNC(=O)c3cc4ccccc4s3)n2)cc1 [GSK1379896] shows %Inh of 6% or higher.
Condition not met

Reported %Inh reaches at least 6% for O=C(NC1CCN(c2ccnc(Nc3ccc(F)cc3)n2)C1)c1cc2ccccc2s1 (stereo not drawn) [GSK1379716] ?
Condition met

Quick check: does Cc1ccc(C)c(NC(=O)NC2CCN(c3ccnc(Nc4ccc(F)cc4)n3)C2)c1 (stereo not drawn) [GSK1379720] have %Inh greater than or equal to 6%?
Condition met

Is it the case that COc1cc(Nc2nccc(-c3c(-c4cccc(NC(=O)c5c(F)cccc5F)c4)nn4ncccc34)n2)cc(OC)c1OC [GSK327238] has %Inh reaching or exceeding 6%?
Condition not met

Evaluate Nc1ncc(-c2cccnc2)c2scc(-c3ccc4c(c3)CCN4C(=O)Cc3ccccc3)c12 [GSK683281] : %Inh at minimum 6%?
Condition not met

Could you tell me if the measured %Inh of COC(=O)Nc1nc2cc(Oc3ccc(NC(=O)Nc4cc(C(F)(F)F)ccc4F)cn3)ccc2[nH]1.Cl.Cl [GW681170] reaches 6% or more?
Condition met

Kindly determine if %Inh recorded for Cl.Cl.NCC(NCc1ccc(-c2ccnc3[nH]ccc23)s1)c1ccccc1 (stereo not drawn) [GSK1321565] is above or exactly 6%.
Condition met

Is it the case that Oc1cc(Nc2ccnc3cc(I)ccc23)ccc1F [GW552771] has %Inh reaching or exceeding 6%?
Condition met

Check if %Inh >= 6% (inclusive). Item: CCn1c(-c2nonc2N)nc2c(C#CC(C)(C)O)nc(OC[C@H](N)c3ccccc3)cc21 [GSK943949]
Condition not met
